- Test system: MOLM14;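 also: after 48 h exposure read by CellTiter-Glo luminescence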
- Test Details: cell viability relative to vehicle control; higher = less cytotoxic
- Measurement Conditions: 10 µM; SRSF2 genotype: SRSF2 wt/wt
Counter-ions that a name gives are not always drawn.
Property: cell viability (%)
Numbers only; they are read as %.

Examples with their reported cell viability follow.
{"Compound": "O=C(NCCCNc1nc(Nc2cccc(CN3CCOCC3)c2)ncc1C1CC1)C1CCC1", "Test Target": "MOLM14", "Reading Unit": "%", "cell viability": 6.65}
{"Compound": "CN(C/C=C/C#CC(C)(C)C)Cc1cccc2ccccc12", "Test Target": "MOLM14", "Reading Unit": "%", "cell viability": 105}
{"Compound": "NC(=O)Nc1sc(-c2ccc(F)cc2)cc1C(N)=O", "Test Target": "MOLM14", "Reading Unit": "%", "cell viability": 11}
{"Compound": "Oc1ccc2c(c1)OC[C@H]1c3cc4c(cc3O[C@@H]21)OCO4", "Test Target": "MOLM14", "Reading Unit": "%", "cell viability": 85.4}
{"Compound": "CC[C@@]1(O)C(=O)OCc2c1cc1n(c2=O)Cc2cc3c(CN(C)C)c(O)ccc3nc2-1 [Topotecan HCl]", "Test Target": "MOLM14", "Reading Unit": "%", "cell viability": 0.35}
{"Compound": "Cn1c(=O)cc(N2CCC[C@@H](N)C2)n(Cc2cc(F)ccc2C#N)c1=O", "Test Target": "MOLM14", "Reading Unit": "%", "cell viability": 99.2}
{"Compound": "NCCc1ccc(O)c(O)c1 [Dopamine hydrochloride (Inotropin)]", "Test Target": "MOLM14", "Reading Unit": "%", "cell viability": 100}
{"Compound": "CCc1ccc(C(=O)C(C)CN2CCCCC2)cc1 (stereo not given) [Eperisone hydrochloride]", "Test Target": "MOLM14", "Reading Unit": "%", "cell viability": 70}
{"Compound": "CCN(Cc1ccncc1)C(=O)C(CO)c1ccccc1 (stereo not given) [Tropicamide]", "Test Target": "MOLM14", "Reading Unit": "%", "cell viability": 106}

Give its cell viability value. Item: CNC(=O)c1ccccc1Nc1nc(Nc2ccc(N3CCOCC3)cc2OC)ncc1Cl 6.5
